# STUDY_SYSTEM: 26S proteasome
# PROTOCOL_SUMMARY: Inhibition of chymotrypsin-like activity of human 20S proteasome using Suc-LLVY-AMC as substrate
# Type: protein-complex assay
VALUE_KIND: IC50 (nM)

Worked examples, 4 compounds total:
SMILES_REPRESENTATION	VALUE_KIND	EXPERIMENTAL_VALUE
CC(C)C[C@H](NC(=O)[C@H](CC(=O)NCCC(COCc1ccccc1)COCc1ccccc1)NC(=O)c1cccc(-c2ccccc2)n1)B1O[C@@H]2C[C@@H]3C[C@@H](C3(C)C)[C@]2(C)O1	IC50	7.5
CC(=O)N[C@@H](CC(=O)NCC(COCc1ccccc1)COCc1ccccc1)C(=O)N[C@@H](CC(C)C)B(O)O	IC50	7.7
CC(=O)N[C@@H](CC(=O)NCCC(COCc1ccccc1)COCc1ccccc1)C(=O)N[C@@H](CC(C)C)B1O[C@@H]2C[C@@H]3C[C@@H](C3(C)C)[C@]2(C)O1	IC50	2.7
CNC(=O)C[C@H](NC(C)=O)C(=O)N[C@@H](CC(C)C)B1O[C@@H]2C[C@@H]3C[C@@H](C3(C)C)[C@]2(C)O1	IC50	54

I. CC[C@H](C)[C@@H]1C(=O)O[C@H]1C(=O)NCCC(COCc1ccccc1)COCc1ccccc1
II. CC(=O)N[C@@H](CCC(=O)NCCC(COCc1ccccc1)COCc1ccccc1)C(=O)N[C@@H](CC(C)C)B1O[C@@H]2C[C@@H]3C[C@@H](C3(C)C)[C@]2(C)O1
Kindly identify the item with the lower IC50 figure among these two: I and II Your answer should be the label attached to the chosen record. II
(II: 5.7 nM, I: 29 nM)

* * *

# PROTOCOL_SUMMARY: Inhibition of caspase-like activity of proteasome (unknown origin)
# Parameters: species or system Homo sapiens
VALUE_KIND: pIC50
For clarity, pIC50 is expressed as the negative log10 of concentration in mol/L.

Lookup result for CC(C)C[C@H](NC(=O)[C@@H](NC(=O)c1cccc(-c2ccccc2)n1)[C@@H](C)O)B(O)O [DELANZOMIB] ; measured pIC50: 7.15

* * *

Each item that follows carries a reported IC50.
# STUDY_SYSTEM: Lysosomal protective protein (Homo sapiens)
# Sequence (P10619 whole entry): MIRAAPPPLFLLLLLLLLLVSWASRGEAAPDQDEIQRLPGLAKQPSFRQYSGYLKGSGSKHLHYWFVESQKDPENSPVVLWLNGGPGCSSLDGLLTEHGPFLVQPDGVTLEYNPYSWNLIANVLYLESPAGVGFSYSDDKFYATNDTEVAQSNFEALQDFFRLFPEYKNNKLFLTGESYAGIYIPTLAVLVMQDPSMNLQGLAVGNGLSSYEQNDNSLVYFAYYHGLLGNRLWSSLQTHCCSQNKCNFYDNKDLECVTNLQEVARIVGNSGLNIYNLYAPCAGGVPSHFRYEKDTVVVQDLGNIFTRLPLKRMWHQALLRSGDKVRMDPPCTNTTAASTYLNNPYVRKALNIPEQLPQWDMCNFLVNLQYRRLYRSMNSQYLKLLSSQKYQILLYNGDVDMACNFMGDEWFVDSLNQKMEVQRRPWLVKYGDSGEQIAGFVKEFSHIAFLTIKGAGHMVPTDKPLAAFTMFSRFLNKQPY
# PROTOCOL_SUMMARY: Inhibition of recombinant cathepsin A (unknown origin) using Mca-Arg-Pro-Pro-Gly-Phe-Ser-Ala-Phe-Lys(Dnp)-OH as substrate incubated with enzyme for 5 mins prior to substrate challenge for 2 hrs by spectrofluorometer analysis

COMPOUND	IC50
CC(=O)N[C@@H](CC(=O)NCCC(COCc1ccccc1)COCc1ccccc1)C(=O)N[C@@H](CC(C)C)B1O[C@@H]2C[C@@H]3C[C@@H](C3(C)C)[C@]2(C)O1	> 30 µM
CC(=O)N[C@@H](CC(=O)NCCCCOCc1ccccc1)C(=O)N[C@@H](CC(C)C)B1O[C@@H]2C[C@@H]3C[C@@H](C3(C)C)[C@]2(C)O1	> 30 µM
CC(C)C[C@H](NC(=O)[C@H](Cc1ccccc1)NC(=O)c1cnccn1)B(O)O [BORTEZOMIB]	9.2 µM

Shift focus to the following entry.
Lookup result for CC(C)C[C@H](NC(=O)[C@H](CCc1ccccc1)NC(=O)CN1CCOCC1)C(=O)N[C@@H](Cc1ccccc1)C(=O)N[C@@H](CC(C)C)C(=O)[C@@]1(C)CO1 [CARFILZOMIB] ; measured IC50: > 30 µM
